The reported numbers originate from BigSolDB 2.1.

Settings: in isopropanol, 308.15 K
Quantity: solubility (mole fraction)
Numbers only.

Output solubility (mole fraction) of Cc1ccc2cc(Br)ccc2n1
0.00518

====

Settings: in water, 323.15 K
Quantity: solubility (mole fraction)
Give bare numbers.

Output solubility (mole fraction) of Cc1ccc2cc(Br)ccc2n1
2.89e-05

====

Settings: in methanol, 283.15 K
Quantity: solubility (mole fraction)
Numbers only.

Output solubility (mole fraction) of Cc1ccc2cc(Br)ccc2n1
0.000276

====

Settings: in n-propanol, 298.15 K
Quantity: solubility (mole fraction)
Give bare numbers.

Output solubility (mole fraction) of Cc1ccc2cc(Br)ccc2n1
0.00438

====

Settings: in acetone, 313.15 K
Quantity: solubility (mole fraction)

Output solubility (mole fraction) of Cc1ccc2cc(Br)ccc2n1
0.0204

====

Settings: in acetonitrile, 303.15 K
Quantity: solubility (mole fraction)
One number for each entry.

Output solubility (mole fraction) of Cc1ccc2cc(Br)ccc2n1
0.0131

====

Settings: in water, 293.15 K
Quantity: solubility (mole fraction)
Answers are plain numbers.

Output solubility (mole fraction) of Cc1ccc2cc(Br)ccc2n1
1.13e-05
